These data points were gathered from paper PMC9482650.

This listing pairs binders with measured pKd.
tgt: T1, RADIL, Q96JH8
T1 sequence (Q96JH8 971-1071, limits assumed, looked up): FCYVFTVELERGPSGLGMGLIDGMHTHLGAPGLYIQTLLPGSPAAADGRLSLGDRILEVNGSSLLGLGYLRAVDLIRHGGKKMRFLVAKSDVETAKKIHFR
run_description: holdup assay
Design: key: below the threshold = too weak to quantify, mostly under pKd 3.1 to 4
experimental_setup: plain residues with an end cap or a label only (N-terminal biotin on a linker: ado-ado)
property_label: pKd

[[record]]
binder = "ADEMICITTL [CACNA1D, Q01668]"
property_label = "pKd"
measurement = 4.62

[[record]]
binder = "ATKDKKITTV [EXOC4, Q96A65]"
property_label = "pKd"
measurement = 4.14

[[record]]
binder = "VCMGDHWFDV [PRKN, O60260]"
property_label = "pKd"
measurement = 4.44

